# Experiment: self-splicing fitness, log relative to wild type (ln ratio); higher = more splicing; Tetrahymena group I intron in knt gene, E. coli kanamycin selection, DiMSum; sequences stand for … in CUCUCU…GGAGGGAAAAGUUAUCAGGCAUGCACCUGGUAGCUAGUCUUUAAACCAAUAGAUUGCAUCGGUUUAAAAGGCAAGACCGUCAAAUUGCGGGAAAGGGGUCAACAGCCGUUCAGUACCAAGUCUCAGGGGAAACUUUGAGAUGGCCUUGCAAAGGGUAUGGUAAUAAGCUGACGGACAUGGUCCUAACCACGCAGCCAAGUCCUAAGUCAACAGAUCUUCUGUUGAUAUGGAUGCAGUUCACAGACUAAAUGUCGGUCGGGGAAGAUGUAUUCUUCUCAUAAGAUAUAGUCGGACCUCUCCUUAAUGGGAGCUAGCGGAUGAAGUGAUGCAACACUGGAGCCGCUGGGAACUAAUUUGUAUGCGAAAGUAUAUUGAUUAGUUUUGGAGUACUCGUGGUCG;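 further: selection with 25 µg/mL kanamycin versus none on LB agar overnight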
# Setup Conditions: 37 °C
Note to self: values exactly at -1 are 1. So self-splicing fitness (ln) at or above -1 is 1, below is 0.

> print(dat)
        residue.sequence  assigned.category
 1  AAGGAGCAAUAUUACGACCU                  1
 2  AGUCAGCAAUAUUACGAGAA                  0
 3  UUGUAGCAAUAUUACGUUAG                  0
 4  GACCAGCAAUAUUACGGUAA                  1
 5  GCAUAGCAAUAUUACGCCUG                  0
 6  UGCGAGCAAUAUUACGAUAA                  0
 7  CGAUAGCAAUAUUACGGCCA                  1
 8  CUGCAGCAAUAUUACGGCCU                  0
 9  AUACAGCAAUAUUACGCCGA                  0
10  AGCCAGCAAUAUUACGUGAG                  1
11  UCACAGCAAUAUUACGGCUC                  0
12  GUGCAGCAAUAUUACGGAGU                  0
13  CUCCAGCAAUAUUACGGCAC                  0
14  UCAGAGCAAUAUUACGAAUU                  0
15  GUGAAGCAAUAUUACGGAGG                  0
16  GGAAAGCAAUAUUACGUACU                  1
17  ACACAGCAAUAUUACGGAGA                  0
18  UGAGAGCAAUAUUACGGGGU                  0
19  UGAAAGCAAUAUUACGCCAG                  1
20  AGCUAGCAAUAUUACGGGUG                  1
21  UGCCAGCAAUAUUACGUAAA                  1
22  CGGAAGCAAUAUUACGCGGU                  0
23  CGAUAGCAAUAUUACGUUUA                  0
24  UCACAGCAAUAUUACGCCAU                  0
25  UGGCAGCAAUAUUACGUUAU                  0
26  UACAAGCAAUAUUACGCAUG                  1
27  CAUUAGCAAUAUUACGACCG                  1
28  UACCAGCAAUAUUACGAAUC                  0
29  UCGCAGCAAUAUUACGCGCC                  0
30  CGAGAGCAAUAUUACGGAUG                  0
31  UUGUAGCAAUAUUACGUGUA                  0
32  CCUCAGCAAUAUUACGAAUG                  1
33  UAUGAGCAAUAUUACGGCUA                  0
34  ACGCAGCAAUAUUACGAUCC                  0
35  UCACAGCAAUAUUACGGAGA                  1
36  UGCGAGCAAUAUUACGGACG                  0
37  AGAAAGCAAUAUUACGAUCA                  1
38  UCGUAGCAAUAUUACGUAGA                  1
39  CCCUAGCAAUAUUACGGAUA                  0
